Entries and their k2 (turnover rate) values follow.
Study target: β-galactosidase (Escherichia coli)
Construct: purchased Sigma Chemical Co., St. Louis, Mo
Sequence (P00722 2-1024): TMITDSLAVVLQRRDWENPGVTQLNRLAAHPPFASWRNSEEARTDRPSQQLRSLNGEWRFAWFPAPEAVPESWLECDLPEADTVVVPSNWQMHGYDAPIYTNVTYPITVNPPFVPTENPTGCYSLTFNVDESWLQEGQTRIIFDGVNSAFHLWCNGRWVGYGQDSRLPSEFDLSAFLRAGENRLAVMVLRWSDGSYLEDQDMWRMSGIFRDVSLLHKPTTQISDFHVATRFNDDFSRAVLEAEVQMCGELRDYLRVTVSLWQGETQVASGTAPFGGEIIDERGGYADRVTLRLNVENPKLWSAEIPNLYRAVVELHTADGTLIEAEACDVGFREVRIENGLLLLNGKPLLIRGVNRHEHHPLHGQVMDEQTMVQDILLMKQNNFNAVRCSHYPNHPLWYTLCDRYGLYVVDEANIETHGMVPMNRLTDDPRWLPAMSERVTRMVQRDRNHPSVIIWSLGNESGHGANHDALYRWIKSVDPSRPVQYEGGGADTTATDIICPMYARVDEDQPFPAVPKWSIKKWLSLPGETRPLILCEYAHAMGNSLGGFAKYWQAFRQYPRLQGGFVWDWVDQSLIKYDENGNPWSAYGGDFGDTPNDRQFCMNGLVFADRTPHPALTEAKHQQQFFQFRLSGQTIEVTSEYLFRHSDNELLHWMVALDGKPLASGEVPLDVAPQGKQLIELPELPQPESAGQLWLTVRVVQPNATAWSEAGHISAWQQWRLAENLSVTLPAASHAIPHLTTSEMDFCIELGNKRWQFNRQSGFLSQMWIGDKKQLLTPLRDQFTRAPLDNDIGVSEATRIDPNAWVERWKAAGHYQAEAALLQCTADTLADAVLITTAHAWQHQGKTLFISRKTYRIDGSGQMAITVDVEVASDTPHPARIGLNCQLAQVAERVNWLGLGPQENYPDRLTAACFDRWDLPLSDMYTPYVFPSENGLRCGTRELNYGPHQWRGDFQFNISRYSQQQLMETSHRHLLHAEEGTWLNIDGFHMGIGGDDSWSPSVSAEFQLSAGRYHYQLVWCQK
Test method notes: In vitro kinetic assay of galactosidase substrates (absorbance increase at 490 nm)
Assay type: biochemical
Measurement setup: in buffer, pH 7.0, room temperature

| Molecule | Study target | k2 (turnover rate) (µmol/min/mg) |
| --- | --- | --- |
| CCCCCCCCCCCC(=O)Nc1ccc2c(c1)C(=O)OC21c2ccc(O[C@@H]3O[C@H](CO)[C@H](O)[C@H](O)[C@H]3O)cc2Oc2cc(O[C@@H]3O[C@H](CO)[C@H](O)[C@H](O)[C@H]3O)ccc21 | β-galactosidase (Escherichia coli) | 0.0537 |
| O=C1OC2(c3ccc(O[C@@H]4O[C@H](CO)[C@H](O)[C@H](O)[C@H]4O)cc3Oc3cc(O[C@@H]4O[C@H](CO)[C@H](O)[C@H](O)[C@H]4O)ccc32)c2ccccc21 [C0 FDG, fluorescein di-62-galactopyranoside, reference compound] | β-galactosidase (Escherichia coli) | 1.90 |
| CCCCCCCCCCCCCCCCCC(=O)Nc1ccc2c(c1)C(=O)OC21c2ccc(O[C@@H]3O[C@H](CO)[C@H](O)[C@H](O)[C@H]3O)cc2Oc2cc(O[C@@H]3O[C@H](CO)[C@H](O)[C@H](O)[C@H]3O)ccc21 | β-galactosidase (Escherichia coli) | 8.28 |
| CCCCCCCCCCCCCCCC(=O)Nc1ccc2c(c1)C(=O)OC21c2ccc(O[C@@H]3O[C@H](CO)[C@H](O)[C@H](O)[C@H]3O)cc2Oc2cc(O[C@@H]3O[C@H](CO)[C@H](O)[C@H](O)[C@H]3O)ccc21 | β-galactosidase (Escherichia coli) | 0.273 |

Every entry's value here was drawn from patent US5208148A.
